# Tested on: RPMI-8226 leukemia
# TEST: NCI tumour cell line growth inhibition, 48 h
MEASURED PARAMETER: TGI

As a guide, the following entries are already answered.
N=C(N)SC1c2ccccc2-c2cc([N+](=O)[O-])ccc21 (stereo not given) = 30.1 µM
Cc1c(Cl)c(S(N)(=O)=O)cc(S(N)(=O)=O)c1NC(=O)c1ccc(Cl)cc1 = > 100 µM
CC1(C)[C@@H]2C[C@H]1C(Cc1ccccc1C[C@H]1c3cc(-c4ccccn4)ncc3[C@H]3C[C@@H]1C3(C)C)c1cc(-c3ccccn3)ncc12 (stereo not given in full) = 3.33 µM
NC(=O)c1nnc2cc(F)c(F)cc2c1N = > 100 µM

For every item in the list below, what is its measured TGI?
1. O=C(CN1CCOCC1)NC1=Nc2ncccc2C(=O)NN1
2. COc1cc([C@@H]2c3cc4c(cc3[C@@H](NC(=O)c3ccc(C(C)=O)cc3)C3COC(=O)[C@@H]32)OCO4)cc(OC)c1O (stereo not given in full)
3. O=C(CCNC(=O)OCc1ccccc1)OCCCNC(=O)OCc1ccccc1

Result:
1: > 10 µM; 2: 14.5 µM; 3: > 100 µM

For every item in the list below, what is its measured TGI?
1. C[C@@H]1O[C@@H]2OCC[C@@H]2C2=C1C(=O)c1ccccc1C2=O
2. COc1ccccc1NC(=O)N/C(N)=N/c1nc2ccccc2s1
3. NC(N)=NS(=O)(=O)c1ccc(NC(=O)c2ccc(Cl)c3c(Nc4ccc(S(=O)(=O)N=C(N)N)cc4)c4ccccc4nc23)cc1
4. CCCN(CCC)c1ccc(C=O)c(OC)c1
5. COc1ccc(-n2nc(C)c3c(Nc4ccc(NC(=O)Nc5cc(C(F)(F)F)ccc5F)cc4)ncnc32)cc1

Result:
30.9 µM
> 72.4 µM
> 100 µM
> 100 µM
5.88 µM

For every item in the list below, what is its measured TGI?
1. CNNC1=NS(=O)(=O)c2cc(C(=O)OC)c(Cl)cc2S1
2. CN1CCN(c2ccc3nc(-c4ccc5nc(-c6ccc(C(F)(F)F)cc6)[nH]c5c4)[nH]c3c2)CC1
3. O=c1cc2oc3ccc4ccccc4c3cc-2c(=O)[nH]1
4. C[n+]1ccccc1/C=C/c1ccc2c(c1)OCO2

Result:
> 10 µM
4.51 µM
> 100 µM
> 10 µM

For every item in the list below, what is its measured TGI?
1. NC(Cc1ccc2oc3cc(=O)c4ccccc4c-3nc2c1)C(=O)O (stereo not given)
2. [O-]c1c(-c2ccccc2)[se]c(-c2ccccc2)[n+]1-c1ccccc1
3. O=C(Cc1ccccc1)NN1C(=O)C(Cl)C1c1cc(Br)cc(Br)c1O (stereo not given)
4. c1ccc(SCCP(CCP(c2ccccc2)c2ccccc2)c2ccccc2)cc1 (stereo not given)

Result:
["> 88.3 µM", "> 100 µM", "29.1 µM", "> 66.3 µM"]

###

# Tested on: NCI-H226 lung
# TEST: NCI tumour cell line growth inhibition, 48 h
Respond with Fulfilled for TGI values of 30 µM and above, Not fulfilled for values below.

Some solved entries appear below for comparison.
CCC1(c2ccncc2)CCC(=O)NC1=O (stereo unspecified) = Fulfilled
COc1ccc2c3c([nH]c2c1[N+](=O)[O-])C(C)N(C(=O)/C=C/c1ccccc1)CC3 (stereo unspecified) = Fulfilled
Cn1c2nc(=Nc3ccc(Cl)cc3)n3ccc4ccccc4c3c2c(=O)n1-c1ccccc1 = Fulfilled
CC(C)c1cccc2sc(NC(=O)C(=O)CC(=O)c3ccc(F)cc3)nc12 = Fulfilled
C=C(Cl)C(Br)(CCl)CCC(Cl)C(C)C (stereo unspecified) (tested in a mixture with another compound) = Not fulfilled

Task: Identify whether the reported TGI of the following compound is 30 µM or greater: N#C/C(=C/c1cccs1)c1cccs1
Result: Fulfilled

Task: Identify whether the reported TGI of the following compound is 30 µM or greater: COC(=O)/C1=C/C2CC(/C=C(/c3ccccc3)C(=O)O1)C2
Result: Fulfilled

Task: Identify whether the reported TGI of the following compound is 30 µM or greater: CCCN(CCC)C(=O)Cc1c2n(c3ccccc13)CCCc1ccccc1-2
Result: Not fulfilled

Task: Identify whether the reported TGI of the following compound is 30 µM or greater: CN([N-]C(=O)CC(=O)[N-]N(C)C(=S)c1ccccc1)C(=S)c1ccccc1.[Cu+2]
Result: Not fulfilled

###

# System: NCI-H522 lung
# TEST: NCI tumour cell line growth inhibition, 48 h
Respond with 1.0 for TGI values of 5 µM and above, 0.0 for values below.

Fc1ccc(C(OCCN2CC3CC2CN3CCCc2ccccc2)c2ccc(F)cc2)cc1 (configuration not stated) = 1.0

Task: Identify whether the reported TGI of the following molecule is 5 µM or greater: COc1ccc2c3c([nH]c2c1[N+](=O)[O-])C(C)N(C(=O)/C=C/c1ccccc1)CC3 (configuration not stated)
Result: 1.0

Task: Identify whether the reported TGI of the following molecule is 5 µM or greater: C=C(Cl)C(Br)(CCl)CCC(Cl)C(C)C (configuration not stated) (tested in a mixture with another compound)
Result: 0.0

Task: Identify whether the reported TGI of the following molecule is 5 µM or greater: O=[N+]([O-])/C(Cl)=C(\Sc1ccccc1)C(Cl)=C(Cl)Cl
Result: 0.0

###

# Test system: OVCAR-5 ovarian
# TEST: NCI tumour cell line growth inhibition, 48 h
Field: TGI. Provide a value for each of the molecules that follow.

As a guide, the following entries are already answered.
CNC(=S)N/N=C(\C)c1ccc(OC)cc1O = > 100 µM
COc1cc2c(cc1OC)[C@]1(O)C(=O)c3ccc4c(c3O[C@@H]1CO2)C[C@H](C(C)(C)O)O4 = > 100 µM
CCCCCCCCCCSS(=O)(=O)c1ccc(C)cc1 = 30.6 µM
CCOP(=O)(C/C(=N/NC(C)(C)C)C(=O)Nc1nc2ccc(C)cc2s1)OCC = > 100 µM
COc1cc(C(C)c2cc3c(cc2OCCOCCOc2cc4c(cc2C(C)c2cc(OC)c(OC)c(OC)c2)OCO4)OCO3)cc(OC)c1OC (stereo not given) = > 100 µM
CCCCC/C=C1\CCC(CN2CCOCC2)C1=O (stereo not given) = 35.9 µM
NC(N)=NS(=O)(=O)c1ccc(NC(=O)c2ccc(Cl)c3c(Nc4ccc(S(=O)(=O)N=C(N)N)cc4)c4ccccc4nc23)cc1 = > 100 µM
N#CC(C(=N/NC(N)=S)/C(=N\NC(N)=S)C(C#N)c1ccccc1)c1ccccc1 (stereo not given) = > 10 µM
COc1cc2c(cc1OC)C(C1(O)CCCCC1)NCC2 (stereo not given) = > 100 µM

// switching to the query molecule
Task: # TGI lookup, item C=CC1(C)/C(=N\O)C(C)(CC)C(=O)N1O (stereo not given)
Result: > 100 µM

###

# Tested on: HOP-62 NSCLC
# TEST: NCI tumour cell line growth inhibition, 48 h
MEASURED PARAMETER: TGI

As a guide, the following entries are already answered.
Cn1c2nc(=Nc3ccc(Cl)cc3)n3ccc4ccccc4c3c2c(=O)n1-c1ccccc1 = > 100 µM
COc1ccc(-c2ccc(=O)oc2-c2cc(OC)c(OC)c(OC)c2)cc1O = > 100 µM
CN1C(=O)c2cccc3c([N+](=O)[O-])ccc(c23)C1=O = 24.7 µM
COc1ccc(C(F)(F)F)cc1NC(=O)O/N=C(/Cl)C(C)C = 46 µM
N#CC1(C#N)C(c2ccccc2)NC23CCCCC2C1(C#N)C(=O)N3 (centres undefined) = > 100 µM

For every item in the list below, what is its measured TGI?
1. O=C(O/N=C1/CCC/C1=C\c1ccccc1)c1ccc(Cl)cc1
2. CN(C)CCCNC(=O)c1cc(NC(=O)CCCn2c3ccccc3c3ccccc32)cn1C
3. CC1=CC(=O)c2cccc(O)c2C1=O
4. CCOC(=O)C1C(=O)CC(C)(O)C(C(=O)OCC)C1c1ccc(O)c(OC)c1 (centres undefined)
5. CCOC(=O)c1c(N2CCOCC2)[nH]c(=O)c(C(c2ccc(N(C)C)cc2)c2c(O)c(C(=O)OCC)c(N3CCOCC3)[nH]c2=O)c1O
6. Oc1ccc2ccccc2c1N=Nc1ccc(N=Nc2ccccc2)cc1

Result:
1. > 89.6 µM
2. > 100 µM
3. 30.9 µM
4. > 100 µM
5. > 100 µM
6. > 100 µM

###

# System: A498 renal
# TEST: NCI tumour cell line growth inhibition, 48 h
MEASURED PARAMETER: TGI

COC(=O)c1c(C)cccc1C1CN=NC12Cc1c(C)cccc1C2=O (stereo unspecified) = > 100 µM

For every item in the list below, what is its measured TGI?
1. O=C(O)C1(C(=O)O)CCN(S(=O)(=O)c2ccccc2)CC1
2. CC1(Br)C(=O)NC(=O)N([C@H]2C[C@H](O)[C@@H](CO)O2)C1N=[N+]=[N-] (stereo partly specified)
3. Fc1ccc(C(OCCN2CC3CC2CN3CCCc2ccccc2)c2ccc(F)cc2)cc1 (stereo unspecified)
4. COc1cc2c3c(n(CCCn4cccn4)c(=O)c2cc1OC)-c1cc2c(cc1C3=O)OCO2
5. CNNC1=NS(=O)(=O)c2cc(C(=O)OC)c(Cl)cc2S1
6. Cc1cc(Cl)ccc1N1C(=O)C(=O)C(c2nc3ccccc3s2)/C(=N\NC(=O)c2ccccc2O)C1=O (stereo unspecified)
7. COc1ccc(C(=O)N=C2N(c3ccccc3)C(=Nc3ccccc3)C(=Nc3ccccc3)N2c2ccccc2)cc1
8. CC(=O)OCC1OC(Sc2nc(-c3ccc(C)cc3)c(C#N)c(=O)n2C2OC(COC(C)=O)C(OC(C)=O)C(OC(C)=O)C2OC(C)=O)C(OC(C)=O)C(OC(C)=O)C1OC(C)=O (stereo unspecified)

Result:
> 100 µM
> 100 µM
18.3 µM
14.2 µM
> 10 µM
> 100 µM
61.1 µM
> 100 µM

Where these numbers come from: PubChem BioAssay (NCI)
